# STUDY_TARGET: human TLR7 (Homo sapiens, UniProt Q9NYK1)
# Sequence (Q9NYK1 27-1049): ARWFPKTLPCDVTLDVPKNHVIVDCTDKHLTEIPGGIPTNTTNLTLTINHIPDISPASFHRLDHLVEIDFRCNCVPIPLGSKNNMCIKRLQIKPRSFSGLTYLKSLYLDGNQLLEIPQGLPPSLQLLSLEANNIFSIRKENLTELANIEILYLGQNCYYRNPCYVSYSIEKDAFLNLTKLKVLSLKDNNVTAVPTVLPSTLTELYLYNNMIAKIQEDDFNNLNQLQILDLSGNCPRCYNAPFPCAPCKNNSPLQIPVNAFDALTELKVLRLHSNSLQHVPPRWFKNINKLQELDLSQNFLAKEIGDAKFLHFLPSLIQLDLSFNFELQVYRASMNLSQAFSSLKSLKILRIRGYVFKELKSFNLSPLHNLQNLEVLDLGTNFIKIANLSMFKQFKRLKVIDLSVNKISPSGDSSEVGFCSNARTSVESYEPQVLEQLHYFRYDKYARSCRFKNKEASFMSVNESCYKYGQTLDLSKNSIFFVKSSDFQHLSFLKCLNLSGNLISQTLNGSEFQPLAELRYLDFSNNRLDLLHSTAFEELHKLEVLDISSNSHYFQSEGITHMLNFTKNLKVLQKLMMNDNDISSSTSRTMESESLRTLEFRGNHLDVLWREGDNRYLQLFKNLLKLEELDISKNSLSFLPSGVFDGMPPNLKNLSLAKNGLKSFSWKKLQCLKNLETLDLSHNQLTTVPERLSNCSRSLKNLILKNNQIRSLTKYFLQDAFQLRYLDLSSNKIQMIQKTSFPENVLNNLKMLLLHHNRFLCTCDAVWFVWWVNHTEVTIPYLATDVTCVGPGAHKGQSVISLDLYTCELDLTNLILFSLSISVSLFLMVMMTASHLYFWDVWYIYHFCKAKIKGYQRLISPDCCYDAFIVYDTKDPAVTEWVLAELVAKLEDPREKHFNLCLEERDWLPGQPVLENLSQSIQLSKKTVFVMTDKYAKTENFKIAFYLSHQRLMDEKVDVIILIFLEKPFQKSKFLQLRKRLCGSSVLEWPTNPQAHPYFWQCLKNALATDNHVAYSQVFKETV
# PROTOCOL_DETAILS: TLR7 inhibition reporter assay (HEK-Blue cells, SEAP reporter, gardiquimod stimulation)
# ASSAY_CONDITIONS: HEK-Blue cells overexpressing human TLR7, SEAP reporter, gardiquimod 7.5 μM
List of IC50 values.

| MOLECULE | IC50 |
| --- | --- |
| Cc1nc2cc(-c3[nH]c4ccc(C5CCN(CC(C)(C)O)CC5)cc4c3C(C)C)ccn2n1 | < 100 nM |
| Cc1cc2nc(-c3[nH]c4ccc(C5CCNCC5)cc4c3C(C)C)ccn2n1 | 100 to 1000 nM |
| CN1CC(C(=O)N2CCC(c3ccc4[nH]c(-c5ccc6nccn6c5)c(CC(F)F)c4c3)CC2)CC1=O (stereo not shown) | 100 to 1000 nM |
| Cc1c(-c2[nH]c3ccc(C4CCN(CC(=O)N(C)C)CC4)cc3c2C(C)C)ccc2c1cnn2C | < 100 nM |
| Cc1nc(CN2CCC(c3ccc4[nH]c(-c5ccc6nccn6c5)c(C(C)C)c4c3)CC2)c[nH]1 | < 100 nM |
| Cc1c(-c2ccnc3[nH]ccc23)[nH]c2ccc(C3CCNCC3)cc12 | < 100 nM |
| Cc1cc2nnnn2cc1-c1[nH]c2ccc(C3CCNCC3)cc2c1C(C)C | < 100 nM |
| CCc1c(-c2cnc3cccnn23)[nH]c2ccc(C3CCNCC3)cc12 | 1000 to 50000 nM |
| CNC(=O)CN1CCC(c2ccc3[nH]c(-c4cc(C)c5nccnc5c4)c(C(C)C)c3c2)CC1 | < 100 nM |
| CC(C)c1c(-c2cn(C)c3ncncc23)[nH]c2ccc(C3CCN(C4CCOCC4)CC3)cc12 | < 100 nM |
| Cc1c(-c2[nH]c3ccc(C4CCN(CC(=O)N(C)C)CC4)cc3c2C(C)C)c2cccnc2n1C | < 100 nM |
| Cc1c(-c2ccnc3[nH]cnc23)[nH]c2ccc(C3CCNCC3)cc12 | < 100 nM |
| CCc1ncc(CN2CCC(c3ccc4[nH]c(-c5ccnc6[nH]ncc56)c(CC)c4c3)CC2)[nH]1 | 100 to 1000 nM |
| CNC(=O)CN1CCC(c2ccc3[nH]c(-c4cc(C)n5ccnc5c4)c(C(C)C)c3c2)CC1 | 100 to 1000 nM |
| CC(C)c1c(-c2ccnc3[nH]ncc23)[nH]c2ccc(C3CCN(Cc4ccc(N5CCOCC5)cc4)CC3)cc12 | < 100 nM |
| Cc1cc(-c2[nH]c3ccc(C4CCN(C(=O)CN(C)C)CC4)cc3c2C(C)C)nn2ncnc12 | < 100 nM |
| CNCC(=O)N1CCC(c2ccc3[nH]c(-c4cc(C)c5ncccc5c4)c(C(C)C)c3c2)CC1 | < 100 nM |
| COc1cc(CN(C)C)cc(CN2CCC(c3ccc4[nH]c(-c5ccnc6[nH]ncc56)c(C(C)C)c4c3)CC2)c1O | < 100 nM |
| COc1c(C)c(-c2[nH]c3ccc(C4CCN(C(=O)CN(C)C)CC4)cc3c2C(C)C)nn2ncnc12 | < 100 nM |
| Cc1cc(-c2[nH]c3ccc(C4CCN(CC#N)CC4)cc3c2C(C)C)cc2cnnn12 | < 100 nM |
| Cc1cc(-c2[nH]c3ccc(C4CCN(C(=O)CCN(C)C5CC5)CC4)cc3c2C(C)C)cn2nnnc12 | < 100 nM |
| CC(C)c1c(-c2ccc3nccn3c2)[nH]c2ccc(C3CCN(C4CCN(C(C)C)CC4)CC3)cc12 | < 100 nM |
| CC(C)c1c(-c2cn(C)c3ncccc23)[nH]c2ccc(C3CCNCC3)cc12 | < 100 nM |
| Cc1cc(-c2[nH]c3ccc(C4CCN(C(=O)C5CC(=O)N(C)C5)CC4)cc3c2C(C)C)c2ccccc2n1 (stereo not shown) | < 100 nM |
| CCc1c(-c2ccnc3[nH]ncc23)[nH]c2ccc(C3CCN(Cc4cnc(N)s4)CC3)cc12 | > 50000 nM |
| Cc1cc(-c2[nH]c3ccc(C4CCN(C(=O)CN5CCC(F)(F)C5)CC4)cc3c2C(C)C)cn2nnnc12 | < 100 nM |
| Cc1cc(-c2[nH]c3ccc(C4CCN(C5COC5)CC4)cc3c2C(C)C)cc2cccnc12 | < 100 nM |
| Cc1cc2cc(-c3[nH]c4ccc(C5CCN(C6COC6)CC5)cc4c3C(C)C)ccn2n1 | 100 to 1000 nM |
| Cc1cc2nnnn2cc1-c1[nH]c2ccc(C3CCN(Cc4ncn(C)n4)CC3)cc2c1C(C)C | < 100 nM |
| CCc1c(-c2c(C)cnc3[nH]ccc23)[nH]c2ccc(C3CCNCC3)cc12 | < 100 nM |
| CCc1c(-c2ccnc3[nH]ccc23)[nH]c2ccc(C3CCN(C4CC(C)(C)NC(C)(C)C4)CC3)cc12 | < 100 nM |

====

# STUDY_TARGET: human TLR9 (Homo sapiens, UniProt Q9NR96)
# Sequence (Q9NR96 26-1032): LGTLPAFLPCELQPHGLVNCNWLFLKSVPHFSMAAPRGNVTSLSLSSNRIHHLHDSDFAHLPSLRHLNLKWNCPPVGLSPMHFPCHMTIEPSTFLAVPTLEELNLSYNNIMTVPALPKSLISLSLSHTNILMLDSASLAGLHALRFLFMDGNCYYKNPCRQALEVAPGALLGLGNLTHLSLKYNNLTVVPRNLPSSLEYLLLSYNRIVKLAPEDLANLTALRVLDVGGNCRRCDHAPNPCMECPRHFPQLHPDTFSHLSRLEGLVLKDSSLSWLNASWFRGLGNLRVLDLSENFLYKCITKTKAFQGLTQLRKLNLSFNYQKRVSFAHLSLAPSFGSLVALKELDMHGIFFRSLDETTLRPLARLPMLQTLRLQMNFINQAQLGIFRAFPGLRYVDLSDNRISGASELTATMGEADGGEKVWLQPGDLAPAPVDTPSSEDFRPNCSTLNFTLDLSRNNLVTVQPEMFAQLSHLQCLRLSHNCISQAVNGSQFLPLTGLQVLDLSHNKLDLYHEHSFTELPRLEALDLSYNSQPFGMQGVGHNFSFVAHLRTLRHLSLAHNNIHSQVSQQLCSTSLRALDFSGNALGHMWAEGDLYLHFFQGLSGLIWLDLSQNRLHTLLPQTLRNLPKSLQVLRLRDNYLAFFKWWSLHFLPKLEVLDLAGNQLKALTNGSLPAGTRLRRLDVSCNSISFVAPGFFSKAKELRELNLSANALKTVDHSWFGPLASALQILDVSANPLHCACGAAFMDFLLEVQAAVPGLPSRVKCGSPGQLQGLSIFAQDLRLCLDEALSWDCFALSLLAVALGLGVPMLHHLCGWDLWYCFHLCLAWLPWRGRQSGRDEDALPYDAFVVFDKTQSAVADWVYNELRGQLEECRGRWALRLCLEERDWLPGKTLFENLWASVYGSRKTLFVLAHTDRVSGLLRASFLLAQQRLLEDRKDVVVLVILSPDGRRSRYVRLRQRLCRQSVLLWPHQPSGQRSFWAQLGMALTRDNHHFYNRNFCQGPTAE
# PROTOCOL_DETAILS: TLR9 inhibition reporter assay (HEK-Blue cells, SEAP reporter, ODN2006 stimulation)
# ASSAY_CONDITIONS: HEK-Blue cells overexpressing human TLR9, SEAP reporter, ODN2006 5 nM
pIC50: −log10 of the molar value.
MEASURED_PROPERTY: pIC50

| CPD_SMILES | MEASURED_PROPERTY | EXPERIMENTAL_RESULT |
| --- | --- | --- |
| Cc1cc(-c2[nH]c3ccc(C4CCNCC4)cc3c2C(C)C)cn2c(C#N)cnc12 | pIC50 | 4.30 to 6.00 |
| Cc1cc2cc(-c3[nH]c4ccc(C5CCN(CC(C)(C)O)CC5)cc4c3C(C)C)cc(CC(C)C)n2n1 | pIC50 | 4.30 to 6.00 |
| Cc1cc2cc(-c3[nH]c4ccc(C5CCN(C6COC6)CC5)cc4c3C(C)C)ccn2n1 | pIC50 | < 4.30 |
| CNc1c[nH]c2nccc(-c3[nH]c4ccc(C5CCNCC5)cc4c3C)c12 | pIC50 | 4.30 to 6.00 |
| CNC(=O)CN1CCC(c2ccc3[nH]c(-c4cnc5ncnn5c4)c(C(C)C)c3c2)CC1 | pIC50 | 4.30 to 6.00 |
| CC(C)c1c(-c2ccnc3[nH]ncc23)[nH]c2ccc(C3CCN(CCCN4CCOCC4)CC3)cc12 | pIC50 | 6.00 to 7.00 |
| Cc1cn2cc(-c3[nH]c4ccc(C5CCN(Cc6c[nH]c(C)n6)CC5)cc4c3C(C)C)ccc2n1 | pIC50 | > 7.00 |
| CNC(=O)CN1CCC(c2ccc3[nH]c(-c4cc(OC)c5nccn5c4)c(C(C)C)c3c2)CC1 | pIC50 | 6.00 to 7.00 |

The measurements presented in this section are drawn from patent US11739098B2.
